B1: Membrane-associated guanylate kinase, WW and PDZ domain-containing protein 2, residues 296 to 340; numbered along this chain, Q86UL8 (parent)
chain: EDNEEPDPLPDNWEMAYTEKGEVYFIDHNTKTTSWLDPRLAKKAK

# Variants of: B1
# assay_notes: abundance fitness (aPCA) (normalised: wild type 0, dead -1); higher = more abundant; growth selection in yeast, the domain comes from the species named
# measurement_parameters: Homo sapiens
measure: abundance fitness
Give bare numbers.

Solved cases below.
>  <mutation_label>
Y17E

>  <abundance fitness>
-0.42

$$$$
>  <mutation_label>
N29L

>  <abundance fitness>
-0.059

$$$$
>  <mutation_label>
Y24T

>  <abundance fitness>
-0.872

$$$$
>  <mutation_label>
Y24Q

>  <abundance fitness>
-0.809

$$$$
>  <mutation_label>
E1V

>  <abundance fitness>
0.035

$$$$
>  <mutation_label>
H28Y

>  <abundance fitness>
-0.525

$$$$
>  <mutation_label>
T33P

>  <abundance fitness>
-0.841

$$$$
>  <mutation_label>
T32N

>  <abundance fitness>
-0.353

$$$$
>  <mutation_label>
E22A

>  <abundance fitness>
-0.228

$$$$
>  <mutation_label>
Y17T

>  <abundance fitness>
-0.039

$$$$

Quick request: abundance fitness for each listed item, please.
1. L36V
2. G21H
3. L40S
4. A16M

A.
1. 0.025
2. -0.081
3. -0.022
4. -0.254
